Entry source: patent US20160235677A1

# assay.overview: Equilibrium / saturation solubility in test media
# Type: physicochemical
# recorded.conditions: water, thermodynamic from solid; GF, previously measured; read-out: equilibrium solubility in water
measured.quantity: solubility thermodynamic

solubility thermodynamic for COC1=CC(=O)C[C@@H](C)[C@]12Oc1c(Cl)c(OC)cc(OC)c1C2=O [Control 1, (+)-griseofulvin] is 6 to 10 µg/mL

###

# assay.overview: Caco-2 Monolayer Test Method
# Type: in vitro ADME
# recorded.conditions: human; Caco-2 monolayers, apical to basolateral, powder equivalent to 200 μg GF in 1 mL buffer pH 7.4, 2 h
measured.quantity: Papp A→B at 2 h, 200 μg/mL (×10⁻⁶ cm/s)
Field: numeric (×10⁻⁶ cm/s). Do not append units.

Papp A→B at 2 h, 200 μg/mL for COC1=CC(=O)C[C@@H](C)[C@]12Oc1c(Cl)c(OC)cc(OC)c1C2=O [Control 1, (+)-griseofulvin] is 28

###

# assay.overview: Equilibrium / saturation solubility in test media
# Format: physicochemical
# recorded.conditions: HBSS, saline or isotonic; GF, previously measured; read-out: saturation concentration in HBSS
measured.quantity: solubility thermodynamic (µg/mL)
Field: numeric (µg/mL). Do not append units.

solubility thermodynamic for COC1=CC(=O)C[C@@H](C)[C@]12Oc1c(Cl)c(OC)cc(OC)c1C2=O [Control 1, (+)-griseofulvin] is 15
